# System name: Receptor-type tyrosine-protein kinase FLT3 (Homo sapiens, UniProt P36888)
# Sequence (P36888 whole entry): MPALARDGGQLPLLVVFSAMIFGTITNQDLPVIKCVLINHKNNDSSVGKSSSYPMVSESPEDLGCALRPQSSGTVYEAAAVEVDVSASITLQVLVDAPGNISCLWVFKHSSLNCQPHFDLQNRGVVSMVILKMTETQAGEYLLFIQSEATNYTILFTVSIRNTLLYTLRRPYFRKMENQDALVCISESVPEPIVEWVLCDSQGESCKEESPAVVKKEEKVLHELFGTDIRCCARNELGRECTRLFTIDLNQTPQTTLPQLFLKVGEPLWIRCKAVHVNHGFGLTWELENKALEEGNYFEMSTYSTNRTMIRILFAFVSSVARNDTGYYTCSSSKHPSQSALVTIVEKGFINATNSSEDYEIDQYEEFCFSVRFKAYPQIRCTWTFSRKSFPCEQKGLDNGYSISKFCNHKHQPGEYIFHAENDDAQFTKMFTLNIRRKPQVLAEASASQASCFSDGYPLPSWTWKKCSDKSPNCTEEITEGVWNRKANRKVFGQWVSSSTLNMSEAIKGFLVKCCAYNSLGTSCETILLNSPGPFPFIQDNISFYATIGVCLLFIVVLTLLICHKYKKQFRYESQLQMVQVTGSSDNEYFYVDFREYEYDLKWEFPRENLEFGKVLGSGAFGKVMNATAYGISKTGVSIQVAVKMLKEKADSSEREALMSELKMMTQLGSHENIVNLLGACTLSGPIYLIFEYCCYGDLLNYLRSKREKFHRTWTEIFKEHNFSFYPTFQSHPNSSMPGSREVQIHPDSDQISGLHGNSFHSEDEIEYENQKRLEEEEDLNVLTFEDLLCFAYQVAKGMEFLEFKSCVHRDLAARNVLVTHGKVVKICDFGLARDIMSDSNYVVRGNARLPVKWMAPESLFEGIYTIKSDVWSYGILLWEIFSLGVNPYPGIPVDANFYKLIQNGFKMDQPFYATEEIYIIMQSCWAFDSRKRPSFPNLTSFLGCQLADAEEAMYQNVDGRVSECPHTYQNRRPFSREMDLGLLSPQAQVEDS
Listing of recorded Ki by entry.
Measured endpoint: Ki (nM)

substance_smiles=COc1ccc(C2=NNC(=O)/C2=N\Nc2cccc(OC)c2)cc1 system_name="Receptor-type tyrosine-protein kinase FLT3 (Homo sapiens, UniProt P36888)" val=66
substance_smiles=COc1ccncc1C1=NNC(=O)/C1=N\Nc1ccccc1 system_name="Receptor-type tyrosine-protein kinase FLT3 (Homo sapiens, UniProt P36888)" val=290
